- Tested on: Toxoplasma gondii
- assay: growth inhibition of T. gondii in L929 host cells ([3H]-uracil incorporation)
- Assay type: cell-based
- conditions.used: Toxoplasma gondii, L929, 48 h, L929 host cells, 5.0 μg/ml, 48 hours; read-out: % Inhibition
observed.property: inhibition at 5 µg/mL
Report field: quantity (unit follows the number).

The following compounds have reported results that may help.
O=C1C(O)=C([C@H]2CC[C@H](c3ccc(Cl)cc3)CC2)C(=O)c2ccccc21 [Atovaquone, reference compound]; 100%
CCC(C)(NC(=O)c1cc(Cl)c(N)c(Cl)c1)C(=O)CCl (stereo not shown); 75.5%
CCC(C)(NC(=O)c1cc(Cl)c(F)c(Cl)c1)C(=O)CCl (stereo not shown); 77.3%
CCC(C)(NC(=O)c1cc(Br)c(N)c(Br)c1)C(=O)CCl (stereo not shown); 61.2%
CCC(C)(NC(=O)c1cc(F)c(F)c(F)c1)C(=O)CCl (stereo not shown); 80.1%

Lab entry: Toxoplasma gondii assay, compound CCC(C)(NC(=O)c1cc(F)cc(F)c1)C(=O)CCl (stereo not shown) , inhibition at 5 µg/mL = 55%

Lab entry: Toxoplasma gondii assay, compound CCC(C)(NC(=O)c1cc(Cl)cc(Cl)c1)C(=O)CCl (stereo not shown) , inhibition at 5 µg/mL = 69.2%

###

- System: Toxoplasma gondii
- assay: growth inhibition of T. gondii in L929 host cells ([3H]-uracil incorporation)
- Type: cell-based
- conditions.used: Toxoplasma gondii, L929, 72 h, L929 host cells, 5.0 μg/ml, 72 hours; read-out: % Inhibition
observed.property: inhibition at 5 µg/mL

The following compounds have reported results that may help.
CCC(C)(NC(=O)c1cc(Cl)cc(Cl)c1)C(=O)CCl (stereo not shown); 84%
CCC(C)(NC(=O)c1cc(F)c(F)c(F)c1)C(=O)CCl (stereo not shown); 95.4%
O=C1C(O)=C([C@H]2CC[C@H](c3ccc(Cl)cc3)CC2)C(=O)c2ccccc21 [Atovaquone, reference compound]; 97.8%
CCC(C)(NC(=O)c1cc(Cl)c(N)c(Cl)c1)C(=O)CCl (stereo not shown); 78.2%
CCC(C)(NC(=O)c1cc(Cl)c(F)c(Cl)c1)C(=O)CCl (stereo not shown); 95.6%

Reported inhibition at 5 µg/mL for CCC(C)(NC(=O)c1cc(F)cc(F)c1)C(=O)CCl (stereo not shown) was 86.2%

Reported inhibition at 5 µg/mL for CCC(C)(NC(=O)c1cc(Br)c(N)c(Br)c1)C(=O)CCl (stereo not shown) was 79.7%

###

- assay: toxicity towards MDBKF5D2 host cells (MTS)
- conditions.used: bovine, mdbkf5d2 cells, Cytotoxicity (percent toxicity), 0.1 μM
observed.property: cytotoxicity at 48 h, 0.1 µM (%)
Output spec: scalar in %, unitless text.

The following molecules have reported results that may help.
CCC(C)(NC(=O)c1cc(F)c(F)c(F)c1)C(=O)CCl (centres unmarked); 0
CCC(C)(NC(=O)c1cc(Br)c(N)c(Br)c1)C(=O)CCl (centres unmarked); 21
CCC(C)(NC(=O)c1cc(Cl)c(F)c(Cl)c1)C(=O)CCl (centres unmarked); 6.7

Reported cytotoxicity at 48 h, 0.1 µM for CCC(C)(NC(=O)c1cc(F)cc(F)c1)C(=O)CCl (centres unmarked) was 11.2

Reported cytotoxicity at 48 h, 0.1 µM for CCC(C)(NC(=O)c1cc(Cl)c(N)c(Cl)c1)C(=O)CCl (centres unmarked) was 0

###

As shown below, each of these molecules has a reported cytotoxicity at 48 h, 10 µM value.
- assay: toxicity towards MDBKF5D2 host cells (MTS)
- conditions.used: bovine, mdbkf5d2 cells, Cytotoxicity (percent toxicity), 10 μM
Output spec: scalar in %, unitless text.

CCC(C)(NC(=O)c1cc(F)c(F)c(F)c1)C(=O)CCl (centres unmarked) [Compound 11]; 0
CCC(C)(NC(=O)c1cc(Br)c(N)c(Br)c1)C(=O)CCl (centres unmarked) [Compound 14]; 3.9
CCC(C)(NC(=O)c1cc(F)cc(F)c1)C(=O)CCl (centres unmarked) [Compound 12]; 9.9
CCC(C)(NC(=O)c1cc(Cl)c(N)c(Cl)c1)C(=O)CCl (centres unmarked) [Compound 1]; 19.9

Now consider a different molecule.
Reported cytotoxicity at 48 h, 10 µM for CCC(C)(NC(=O)c1cc(Cl)c(F)c(Cl)c1)C(=O)CCl (centres unmarked) [Compound 9] was 0

###

- assay: cytotoxicity towards L929 host cells (Cell Titer 96)
- conditions.used: mouse, % Inhibition of host cell growth (values in parenthesis), L929, 5.0 μg/ml, 72 hours
- Procedure: Cytotoxicity of the test compounds towards host cells was determined using the Cell Titer 96™ it (Promega Corporation, Madison, Wis.) as follows. Cells were seeded at a concentration of 5×10^3 cells per well containing 100 μl of medium in 96-well flat-bottom microtiter plates and incubated at 37° C. in a 5% carbon dioxide environment for 4 hours. […] The plates were then read spectrophotometrically in a plate reader at a wavelength of 570 nm. […]
observed.property: inhibition at 72 h (%)
Output spec: scalar in %, unitless text.

CCC(C)(NC(=O)c1cc(Cl)c(N)c(Cl)c1)C(=O)CCl (centres unmarked) [Compound 1]; 81.1
CCC(C)(NC(=O)c1cc(Cl)c(C)c(Cl)c1)C(=O)CCl (centres unmarked) [Compound 10]; 3.5
CCC(C)(NC(=O)c1cc(Cl)cc(Cl)c1)C(=O)CCl (centres unmarked) [Compound 5]; 91.2
CCC(C)(NC(=O)c1cc(Br)c(N)c(Br)c1)C(=O)CCl (centres unmarked) [Compound 14]; 77.6
O=C1C(O)=C([C@H]2CC[C@H](c3ccc(Cl)cc3)CC2)C(=O)c2ccccc21 [Atovaquone, reference compound]; 78.1

Reported inhibition at 72 h for CCC(C)(NC(=O)c1cc(Cl)c(F)c(Cl)c1)C(=O)CCl (centres unmarked) [Compound 9] was 90.4

Reported inhibition at 72 h for CCC(C)(NC(=O)c1cc(F)cc(F)c1)C(=O)CCl (centres unmarked) [Compound 12] was 88

Reported inhibition at 72 h for CCC(C)(NC(=O)c1cc(F)c(F)c(F)c1)C(=O)CCl (centres unmarked) [Compound 11] was 36.9

###

As shown below, each of these compounds has a reported inhibition at 48 h value.
- assay: cytotoxicity towards HFF host cells (Cell Titer 96)
- conditions.used: human, % Inhibition of host cell growth (values in parenthesis), 5.0 μg/ml, 48 hours
Output spec: scalar in %, unitless text.

CCC(C)(NC(=O)c1cc(F)c(F)c(F)c1)C(=O)CCl (stereo not shown); 6.1

Now consider a different compound.
Reported inhibition at 48 h for CCC(C)(NC(=O)c1cc(Cl)c(F)c(Cl)c1)C(=O)CCl (stereo not shown) was 21.3

###

- System: Toxoplasma gondii
- assay: growth inhibition of T. gondii in HFF host cells ([3H]-uracil incorporation)
- Format: cell-based
- conditions.used: Toxoplasma gondii, 48 h, HFF host cells, 5.0 μg/ml, 48 hours; read-out: % Inhibition
observed.property: inhibition at 5 µg/mL

CCC(C)(NC(=O)c1cc(Cl)c(F)c(Cl)c1)C(=O)CCl (stereo not drawn); 97%
CCC(C)(NC(=O)c1cc(Cl)c(N)c(Cl)c1)C(=O)CCl (stereo not drawn); 99.3%
O=C1C(O)=C([C@H]2CC[C@H](c3ccc(Cl)cc3)CC2)C(=O)c2ccccc21 [Atovaquone, reference compound]; 99.8%

Reported inhibition at 5 µg/mL for CCC(C)(NC(=O)c1cc(F)c(F)c(F)c1)C(=O)CCl (stereo not drawn) was 98.4%

Reported inhibition at 5 µg/mL for CCC(C)(NC(=O)c1cc(Cl)cc(Cl)c1)C(=O)CCl (stereo not drawn) was 100%

Reported inhibition at 5 µg/mL for CCC(C)(NC(=O)c1cc(Br)c(N)c(Br)c1)C(=O)CCl (stereo not drawn) was 99.7%

###

- assay: cytotoxicity towards HFF host cells (Cell Titer 96)
- conditions.used: human, % Inhibition of host cell growth (values in parenthesis), 0.5 μg/ml, 48 hours
As shown below, each of these molecules has a reported inhibition at 48 h value.
Report field: quantity (unit follows the number).

CCC(C)(NC(=O)c1cc(Cl)c(N)c(Cl)c1)C(=O)CCl (stereo not shown) [Compound 1]; 0%
O=C1C(O)=C([C@H]2CC[C@H](c3ccc(Cl)cc3)CC2)C(=O)c2ccccc21 [Atovaquone, reference compound]; 9.6%
CCC(C)(NC(=O)c1cc(F)cc(F)c1)C(=O)CCl (stereo not shown) [Compound 12]; 5.4%
CCC(C)(NC(=O)c1cc(Cl)c(F)c(Cl)c1)C(=O)CCl (stereo not shown) [Compound 9]; 1.1%
CCC(C)(NC(=O)c1cc(Br)c(N)c(Br)c1)C(=O)CCl (stereo not shown) [Compound 14]; 3.7%
CCC(C)(NC(=O)c1cc(Cl)cc(Cl)c1)C(=O)CCl (stereo not shown) [Compound 5]; 5.3%

Now consider a different molecule.
Reported inhibition at 48 h for CCC(C)(NC(=O)c1cc(Cl)c(C)c(Cl)c1)C(=O)CCl (stereo not shown) [Compound 10] was 0%

Sourced from patent US6107316A
